The origin of these recorded values is the supplement of paper PMC8671470.

In this section, each of the molecules is paired with its reported cell viability.
Tested on: MOLM-13
assay details: cell viability (% survival relative to DMSO control, bortezomib = 0%); higher = less cytotoxic
measurement setup: 1 nM; 72 h
I only need the number, in %, no unit after it.

CC(C)c1nc(CN(C)C(=O)N[C@H](C(=O)N[C@@H](Cc2ccccc2)C[C@H](O)[C@H](Cc2ccccc2)NC(=O)OCc2cncs2)C(C)C)cs1 [Ritonavir] : 104

Query: Name the reported cell viability value associated with the molecule CC(C)c1cc2c(c(O)c1O)[C@@]1(C(=O)O)CCCC(C)(C)[C@@H]1CC2 [Carnosic acid]
Reply: 101

Query: Moving on to the next molecule: CN(C)C(=O)[C@H](O)[C@H](Cc1ccccc1)NC(=O)c1cc2cc(Cl)ccc2[nH]1
Reply: 97.6

* * *

Tested on: KU-812
assay details: cell viability (% survival relative to DMSO control, bortezomib = 0%); higher = less cytotoxic
measurement setup: 1 nM; 72 h
assay metric: cell viability (%)
I only need the number, in %, no unit after it.

COc1ccc(S(=O)(=O)N2CCN(S(=O)(=O)c3ccc4c(c3)OCCO4)CC2)cc1 : 90.3
O=C(NCCCCCCNC(=O)ONC1=CCCCC1)ONC1=CCCCC1 : 104
CCCCCCCCCCC[C@@H](C[C@@H]1OC(=O)[C@H]1CCCCCC)OC(=O)[C@H](CC(C)C)NC=O : 98.3
N/C(=N\CCCC(N)C(=O)O)N[N+](=O)[O-] (stereo unspecified) : 88.3
O=C(O)c1cc(N=Nc2ccc(S(=O)(=O)Nc3ccccn3)cc2)ccc1O : 110

Now let's try a different one.
Query: Name the reported cell viability value associated with the compound COc1ccc(C(=O)Nc2c(Cl)cncc2Cl)cc1OC1CCCC1
Reply: 91.4

* * *

System: THP-1
assay details: cell viability (% survival relative to DMSO control, bortezomib = 0%); higher = less cytotoxic
measurement setup: 1 nM; 72 h
assay metric: cell viability (%)
I only need the number, in %, no unit after it.

O=c1cc(-c2ccccc2)oc2cc(O)c(O)c(O)c12 : 99.4
CCCCN1C[C@H](O)[C@@H](O)[C@H](O)[C@H]1CO : 91.1
O[C@H]1[C@H]2[C@H](O)CCCN2C[C@H]1O : 102
NC(=O)c1cccc(-c2cccc(OC(=O)NC3CCCCC3)c2)c1 : 98.5
CCOP(=O)(OCC)C(=Cc1cc(C(C)(C)C)c(O)c(C(C)(C)C)c1)P(=O)(OCC)OCC : 96.7

Query: Name the reported cell viability value associated with the compound CCCCCCCCCCCC(=O)c1c(O)c(C(=O)CCCCCCCCCCC)c(O)c(C2CC(c3ccc(O)cc3)Oc3cc(O)ccc32)c1O (configuration not stated)
Reply: 101

Query: Moving on to the next compound: C[C@H](NC(=O)c1sccc1OCc1ccc(Cl)cc1)c1ccccc1
Reply: 101

* * *

Test system: ML-2
assay details: cell viability (% survival relative to DMSO control, bortezomib = 0%); higher = less cytotoxic
measurement setup: 1000 nM; 72 h
In this section, each of the compounds is paired with its reported cell viability.
I only need the number, in %, no unit after it.

Nc1nc(Cl)nc2c1ncn2[C@H]1C[C@H](O)[C@@H](CO)O1 : 7.04
NCCCC(N)(C(=O)O)C(F)F (centres undefined) : 92.1
O=c1oc2c(O)c(O)cc3c(=O)oc4c(O)c(O)cc1c4c23 : 95.1
O=C(O)CCCCC(CCSCc1ccccc1)SCc1ccccc1 (centres undefined) : 98.2
O=C(O)c1cc(Cl)cc(Cl)c1O : 107
CC(C)c1cc2c(c(O)c1O)[C@@]1(C(=O)O)CCCC(C)(C)[C@@H]1CC2 : 94.5
O=C1O[C@H]([C@@H](O)CO)C(O)=C1O [Vitamin C (ascorbate)] : 102
Oc1ccc(Nc2nc(-c3ccc(Cl)cc3)cs2)cc1 : 89.7

Now let's try a different one.
Query: Can you look up cell viability on ML-2 for CCCCN1C[C@H](O)[C@@H](O)[C@H](O)[C@H]1CO ?
Reply: 101

* * *

System: BV-173
assay details: cell viability (% survival relative to DMSO control, bortezomib = 0%); higher = less cytotoxic
measurement setup: 1000 nM; 72 h
Structures can show the parent of a compound that is named as a salt.
assay metric: cell viability (%)
I only need the number, in %, no unit after it.

Solved entries:
CCCCCCCCCCC[C@@H](C[C@@H]1OC(=O)[C@H]1CCCCCC)OC(=O)[C@H](CC(C)C)NC=O [Orlistat] : 87.5
CC(C)c1onc(-c2c(Cl)cccc2Cl)c1COc1ccc(/C=C/c2cccc(C(=O)O)c2)c(Cl)c1 [GW4064] : 87.7
CCOP(=O)(OCC)C(=Cc1cc(C(C)(C)C)c(O)c(C(C)(C)C)c1)P(=O)(OCC)OCC : 89.9

Query: Can you look up cell viability on BV-173 for Cc1cc(CS(=O)(=O)c2ccccc2)cc(OCc2ccc(CN3CCC[C@@H]3CO)cc2)c1 [PF-543 hydrochloride] ?
Reply: 87.8

* * *

Test system: HL-60
assay details: cell viability (% survival relative to DMSO control); higher = less cytotoxic
measurement setup: 0.001 µM; 72 h; co-treatment: DMSO vehicle
assay metric: cell viability (%)
I only need the number, in %, no unit after it.

Solved entries:
NS(=O)(=O)c1ccc([N+](=O)[O-])cc1 [4-Nitrobenzenesulfonamide] : 92.3
CN(C)c1cc(NC(=O)CNC(C)(C)C)c(O)c2c1C[C@H]1C[C@H]3[C@H](N(C)C)C(=O)C(C(N)=O)C(=O)[C@@]3(O)C(=O)C1C2=O (some centres not stated) [Tigecycline] : 102

Query: Name the reported cell viability value associated with the molecule O=C(O)CCCCC(CCSCc1ccccc1)SCc1ccccc1 (configuration not stated) [CPI-613]
Reply: 98.6

Query: Moving on to the next molecule: COc1ccc(C(=O)Nc2c(Cl)cncc2Cl)cc1OC1CCCC1 [Piclamilast]
Reply: 101

Query: Moving on to the next molecule: COC(=O)[C@]12CCC(C)(C)C[C@H]1[C@H]1C(=O)C=C3[C@@]4(C)C=C(C#N)C(=O)C(C)(C)[C@@H]4CC[C@@]3(C)[C@]1(C)CC2 [Bardoxolone methyl]
Reply: 102

Query: Moving on to the next molecule: Cc1cn([C@H]2C[C@H](O)[C@@H](COP(=O)(O)OP(=O)(O)O)O2)c(=O)[nH]c1=O [Thymidine diphosphate]
Reply: 101

Query: Moving on to the next molecule: COc1ccc(-c2ccccc2)cc1NS(=O)(=O)c1cc(Cl)cc(Cl)c1O
Reply: 96.3

* * *

Tested on: MV4-11
assay details: cell viability (% survival relative to DMSO control, bortezomib = 0%); higher = less cytotoxic
measurement setup: 1000 nM; 72 h
assay metric: cell viability (%)
I only need the number, in %, no unit after it.

Solved entries:
CCOC(=O)c1ccc(-c2ccc(OC(=O)N(C)Cc3cccc(-c4ccncc4)c3)cc2)cc1 [WWL113] : 103
O=C(O)Cn1nnc(-c2cc(N3CCC(Oc4cc(F)ccc4Br)CC3)no2)n1 [MK-8245] : 116
CCCCCCCCCCCC(=O)c1c(O)c(C(=O)CCCCCCCCCCC)c(O)c(C2CC(c3ccc(O)cc3)Oc3cc(O)ccc32)c1O (configuration not stated) : 98.5
COc1ccc2c(C(=S)N(C)CC(=O)O)cccc2c1C(F)(F)F [Tolrestat] : 101

Query: Name the reported cell viability value associated with the molecule N/C(=N\CCCC(N)C(=O)O)N[N+](=O)[O-] [L-NNA]
Reply: 103

Query: Moving on to the next molecule: O=C(O)CCCCC(CCSCc1ccccc1)SCc1ccccc1 (configuration not stated) [CPI-613]
Reply: 93

* * *

System: THP-1
assay details: cell viability (% survival relative to DMSO control, bortezomib = 0%); higher = less cytotoxic
measurement setup: 10000 nM; 72 h
assay metric: cell viability (%)
I only need the number, in %, no unit after it.

Solved entries:
O=C(O)Cn1nnc(-c2cc(N3CCC(Oc4cc(F)ccc4Br)CC3)no2)n1 [MK-8245] : 89.2
CN(C)C(=O)[C@H](O)[C@H](Cc1ccccc1)NC(=O)c1cc2cc(Cl)ccc2[nH]1 : 91.8
CC[C@@]1(O)C(=O)OCc2c1cc1n(c2=O)Cc2cc3c(CN(C)C)c(O)ccc3nc2-1 [Topotecan] : 13.6
Nc1ccccc1C(=O)C[C@H](N)C(=O)O [L-Kynurenine] : 102
C=C(C)[C@H]1Cc2c(ccc3c2O[C@@H]2COc4cc(OC)c(OC)cc4[C@@H]2C3=O)O1 [Rotenone] : 24.5
CCCCC/C=C\C/C=C\C/C=C\C/C=C\CCCCN1C(=O)C=CC1=O [N-Arachidonylmaleimide] : 96.3
NS(=O)(=O)c1ccc([N+](=O)[O-])cc1 [4-Nitrobenzenesulfonamide] : 90.7
O=c1cc(-c2ccccc2)oc2cc(O)c(O)c(O)c12 [Baicalein] : 85.9

Query: Name the reported cell viability value associated with the compound COc1ccc(S(=O)(=O)N2CCN(S(=O)(=O)c3ccc4c(c3)OCCO4)CC2)cc1 [BML283]
Reply: 103

Query: Moving on to the next compound: O=C(O)c1cc(N=Nc2ccc(S(=O)(=O)Nc3ccccn3)cc2)ccc1O [Sulfasalazine]
Reply: 106

Query: Moving on to the next compound: Cc1coc2c1C(=O)C(=O)c1c-2ccc2c1CCCC2(C)C [Tanshinone IIA]
Reply: 62.5
